Test system: human APOE RNA
Assay: Dose-dependent inhibition of human APOE RNA in differentiated SH-SY5Y cells, free uptake, 5 days (Example 5)
Assay type: cell-based
Details: 82 nM, 5 days (Table 14)
Experimental: Modified oligonucleotides selected from the examples above were tested at various doses in differentiated SH-SY5Y cells. The modified oligonucleotides were tested in a series of experiments that had the same culture conditions. Differentiated SH-SY5Y cells plated at a density of 10,000 cells per well were treated by free uptake with various concentrations of modified oligonucleotide as specified in the tables below. […]
Strand notation (5' to 3'): a small letter for the sugar, then the base; units joined by * are phosphorothioate-linked, units joined directly phosphodiester-linked; [ ] holds rarer units or linkages, { } end groups; capitals alone tell only the bases. [ms] = mesyl phosphoramidate linkage; e = 2'-O-(2-methoxyethyl) (MOE); k = constrained ethyl (cEt); [5mC] = 5-methylcytosine; d = 2'-deoxy (DNA)
measuredEndpoint: APOE RNA (% UTC)

1. 1746809 (k[5mC]*dT[ms]kT*dG[ms]kG*dT[ms]dG[ms]dA[ms]dA[ms]dT*d[5mC]*dT*dT*dT*dA[ms]dT*dT[ms]kA*kA*kA; antisense) [Compound 1746809] = 68
2. Aes^mCeoTeoTesGesGksTdsGdzAdzAdzTds^mCdsTdsTdsTdsAdzTksTksAesAe (eA*e[5mC]eTeT*eG*kG*dT*dG[ms]dA[ms]dA[ms]dT*d[5mC]*dT*dT*dT*dA[ms]kT*kT*eA*eA) [Compound No. 1757576] = 35
3. 1785617: modified oligonucleotide complementary to human APOE RNA (k[5mC]*dT[ms]dT[ms]kG*dG[ms]kT*dG[ms]dA[ms]dA[ms]dT[ms]d[5mC]*dT*dT*dT*dA*dT*kT*kA*dA[ms]kA; antisense) [compound 1785617] = 71
4. ^mCksTksTksGdzGdzTdzGdzAdzAdzTds^mCdsTdsTdsTdsAdsTdsTksAksAdzAk (antisense k[5mC]*kT*kT*dG[ms]dG[ms]dT[ms]dG[ms]dA[ms]dA[ms]dT*d[5mC]*dT*dT*dT*dA*dT*kT*kA*dA[ms]kA) [Compound No. 1785602] = 69
5. 1778131: modified oligonucleotide complementary to human APOE RNA (eA*e[5mC]eTeTeGkG*dT*dG[ms]dA[ms]dA*dT*d[5mC]*dT*dT*dT*dA[ms]kTkT*eA*eA; antisense) [compound 1778131] = 69
6. 1778130: modified oligonucleotide complementary to human APOE RNA (eA*e[5mC]eTeTeG*kG*dT*dG[ms]dA[ms]dA*dT*d[5mC]*dT*dT*dT*dA[ms]kTkT*eA*eA; antisense) [compound 1778130] = 51
7. 1778128: modified oligonucleotide complementary to human APOE RNA (eA*e[5mC]eTeTkGkG*dT*dG[ms]dA[ms]dA*dT*d[5mC]*dT*dT*dT*dA[ms]kTeT*eA*eA; antisense) [compound 1778128] = 63
8. 1746804 (k[5mC]*kT*kT*dG[ms]dG[ms]dT[ms]dG[ms]dA[ms]dA[ms]dT*d[5mC]*dT*dT*dT*dA[ms]dT*dT[ms]kA*kA*kA; antisense) [Compound 1746804] = 97
9. 1757575 (eA*e[5mC]eTeT*kG*kG*dT*dG[ms]dA[ms]dA[ms]dT*d[5mC]*dT*dT*dT*dA[ms]kT*eT*eA*eA; antisense) [Compound 1757575] = 50

====

tested on: human APOE RNA; test: Dose-dependent inhibition of human APOE RNA in HepG2 cells, electroporation, 24 hours (Example 6); type: cell-based; conditions: 512 nM
Strand notation (5' to 3'): a small letter for the sugar, then the base; units joined by * are phosphorothioate-linked, units joined directly phosphodiester-linked; [ ] holds rarer units or linkages, { } end groups; capitals alone tell only the bases. [ms] = mesyl phosphoramidate linkage; e = 2'-O-(2-methoxyethyl) (MOE); k = constrained ethyl (cEt); [5mC] = 5-methylcytosine; d = 2'-deoxy (DNA)
Values of APOE RNA (% UTC) greater than or equal to 50 % UTC map to satisfied; values below map to not satisfied.

1. 1693101: 6-10-4 MOE gapmer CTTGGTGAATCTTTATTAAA, linkages sssssozzzssssszssss (e[5mC]*eT*eT*eG*eG*eTdG[ms]dA[ms]dA[ms]dT*d[5mC]*dT*dT*dT*dA[ms]dT*eT*eA*eA*eA) [compound 1693101] = satisfied
2. 1736516 (e[5mC]*eTeTeG*eG*kT*dG[ms]dA[ms]dA[ms]dT*d[5mC]*dT*dT*dT*dA[ms]dT*eT*eA*eA*eA; antisense) [Compound 1736516] = satisfied
3. 1736513 (e[5mC]*eTeT*eG*eG*kT*dG[ms]dA[ms]dA[ms]dT*d[5mC]*dT*dT*dT*dA[ms]dT*eT*eA*eA*eA; antisense) [Compound 1736513] = not satisfied
4. 1736520: 6-10-4 MOE gapmer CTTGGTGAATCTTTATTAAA, linkages sossoszzzssssssssss (e[5mC]*eTeT*eG*eGeT*dG[ms]dA[ms]dA[ms]dT*d[5mC]*dT*dT*dT*dA*dT*eT*eA*eA*eA) [compound 1736520] = not satisfied
5. 1736532 (e[5mC]*eT*eT*eG*kG*kTdG[ms]dA[ms]dA[ms]dT*d[5mC]*dT*dT*dT*dA[ms]dT*eT*eA*eA*eA; antisense) [Compound 1736532] = not satisfied
6. 1736536 (e[5mC]*eT*eT*eG*kGkT*dG[ms]dA[ms]dA[ms]dT*d[5mC]*dT*dT*dT*dA[ms]dT*eT*eA*eA*eA; antisense) [Compound 1736536] = satisfied
7. 1736493 (e[5mC]*eTeT*eG*eG*eT*dG[ms]dA[ms]dA[ms]dT*d[5mC]*dT*dT*dT*dA[ms]dT*kT*kA*eA*eA; antisense) [Compound 1736493] = not satisfied

====

tested on: human APOE RNA; experiment: Duration of action study in APOE C57BL/6NTac-Apoeem7250 knock-in mice (Example 18); assay type: in vivo; conditions: cortex; 196 days post-dose; single ICV bolus 300 μg; APOE knock-in mice; normalized to mouse Ppia; relative to PBS
Strand notation (5' to 3'): a small letter for the sugar, then the base; units joined by * are phosphorothioate-linked, units joined directly phosphodiester-linked; [ ] holds rarer units or linkages, { } end groups; capitals alone tell only the bases. [ms] = mesyl phosphoramidate linkage; e = 2'-O-(2-methoxyethyl) (MOE); k = constrained ethyl (cEt); [5mC] = 5-methylcytosine; d = 2'-deoxy (DNA)
Listing: APOE RNA (% control) Cortex of selected substances
measuredEndpoint: APOE RNA (% control) Cortex

1. Aes^mCeoTeoTesGesGksTdsGdzAdzAdzTds^mCdsTdsTdsTdsAdzTksTksAesAe (eA*e[5mC]eTeT*eG*kG*dT*dG[ms]dA[ms]dA[ms]dT*d[5mC]*dT*dT*dT*dA[ms]kT*kT*eA*eA) [Compound No. 1757576] = 71 % control
2. TezTeoGeoGksTdsGdzAdzAdzTds^mCdsTdsTdsTdsAdzTksTksAesAesAes^mCe (antisense eT[ms]eTeGkG*dT*dG[ms]dA[ms]dA[ms]dT*d[5mC]*dT*dT*dT*dA[ms]kT*kT*eA*eA*eA*e[5mC]) [Compound No. 1809814] = 68 % control
3. Aks^mCeoTeoTesGesGksTdsGdzAdzAdzTds^mCdsTdsTdsTdsAdzTksTksAesAe (kA*e[5mC]eTeT*eG*kG*dT*dG[ms]dA[ms]dA[ms]dT*d[5mC]*dT*dT*dT*dA[ms]kT*kT*eA*eA) [Compound No. 1809635] = 50 % control
4. ^mCksTksTksGdzGdzTdzGdzAdzAdzTds^mCdsTdsTdsTdsAdsTdsTksAksAdzAk (antisense k[5mC]*kT*kT*dG[ms]dG[ms]dT[ms]dG[ms]dA[ms]dA[ms]dT*d[5mC]*dT*dT*dT*dA*dT*kT*kA*dA[ms]kA) [Compound No. 1785602] = 56 % control

====

Listing: pIC50 of selected substances
System: human APOE RNA
Assay: Dose-dependent inhibition of human APOE RNA in differentiated SH-SY5Y cells, free uptake, 5 days (Example 5)
Format: cell-based
Conditions: 5 days (Table 14)
Procedure: Modified oligonucleotides selected from the examples above were tested at various doses in differentiated SH-SY5Y cells. The modified oligonucleotides were tested in a series of experiments that had the same culture conditions. Differentiated SH-SY5Y cells plated at a density of 10,000 cells per well were treated by free uptake with various concentrations of modified oligonucleotide as specified in the tables below. […]
pIC50: −log10 of the molar value. Strand notation (5' to 3'): a small letter for the sugar, then the base; units joined by * are phosphorothioate-linked, units joined directly phosphodiester-linked; [ ] holds rarer units or linkages, { } end groups; capitals alone tell only the bases. [ms] = mesyl phosphoramidate linkage; e = 2'-O-(2-methoxyethyl) (MOE); k = constrained ethyl (cEt); [5mC] = 5-methylcytosine; d = 2'-deoxy (DNA)
measuredEndpoint: pIC50

1) 1746804 (k[5mC]*kT*kT*dG[ms]dG[ms]dT[ms]dG[ms]dA[ms]dA[ms]dT*d[5mC]*dT*dT*dT*dA[ms]dT*dT[ms]kA*kA*kA; antisense) [Compound 1746804] = 5.55
2) Aes^mCeoTeoTesGesGksTdsGdzAdzAdzTds^mCdsTdsTdsTdsAdzTksTksAesAe (eA*e[5mC]eTeT*eG*kG*dT*dG[ms]dA[ms]dA[ms]dT*d[5mC]*dT*dT*dT*dA[ms]kT*kT*eA*eA) [Compound No. 1757576] = 7.70
3) 1785598: modified oligonucleotide complementary to human APOE RNA (k[5mC]*kT*kT*dG[ms]dG[ms]dT[ms]dG[ms]dA[ms]dA[ms]dT*d[5mC]*dT*dT*dT*dA*dT[ms]kT*kA*dA[ms]kA; antisense) [compound 1785598] = 6.74
4) 1746784 (k[5mC]*kT*kT*dG[ms]dG[ms]dT[ms]dG[ms]dA[ms]dA[ms]dT*d[5mC]*dT*dT*dT*dA[ms]dT*kT*kA*dA[ms]kA; antisense) [Compound 1746784] = 6.36
5) 1778131: modified oligonucleotide complementary to human APOE RNA (eA*e[5mC]eTeTeGkG*dT*dG[ms]dA[ms]dA*dT*d[5mC]*dT*dT*dT*dA[ms]kTkT*eA*eA; antisense) [compound 1778131] = 6.16
